system: Pseudomonas aeruginosa; assay: Antibacterial activity against Pseudomonas aeruginosa ATCC 27853 after 18 to 24 hrs by twofold serial dilution method; type: functional
MIC values, listed per item

MOLECULE: CCO/N=C1\CN(c2c(F)cc3c(=O)c(C(=O)O)cn(CCF)c3c2F)CC1/C(N)=N\OC (stereo not drawn)
VALUE REPORTED: > 128 µg/mL
//
MOLECULE: CCO/N=C1\CN(c2c(F)cc3c(=O)c(C(=O)O)cn(CC)c3c2F)CC1/C(N)=N\O (stereo not drawn)
VALUE REPORTED: > 128 µg/mL

Inquiry: Identify measured MIC corresponding to CCO/N=C(/N)C1CN(c2c(F)cc3c(=O)c(C(=O)O)cn(CCF)c3c2F)C/C1=N\OC (stereo not drawn)
Reply text: > 128 µg/mL

----------
system: Pseudomonas aeruginosa; test: Antibacterial activity against Pseudomonas aeruginosa 09-32 after 18 to 24 hrs by twofold serial dilution method; format: functional
OBSERVABLE: MIC

Inquiry: Identify measured MIC corresponding to CCO/N=C1\CN(c2c(F)cc3c(=O)c(C(=O)O)cn(CCF)c3c2F)CC1/C(N)=N\OCC (stereo not drawn)
Reply text: > 128 µg/mL

----------
tested on: Staphylococcus epidermidis; assay: Antibacterial activity against methicillin-sensitive Staphylococcus epidermidis 09-6 after 18 to 24 hrs by twofold serial dilution method; assay type: functional
log10 of MIC values, listed per item
Recorded MIC (log10, µg/mL)

Consider the worked cases shown below.
COMPOUND: CO/N=C1\CN(c2nc3c(cc2F)c(=O)c(C(=O)O)cn3-c2ccc(F)cc2F)CC1/C(N)=N\OC (stereo unspecified)
VALUE REPORTED: -0.60
--
COMPOUND: CCO/N=C(/N)C1CN(c2c(F)cc3c(=O)c(C(=O)O)cn4c3c2OC[C@@H]4C)C/C1=N\OC (stereo partly specified)
VALUE REPORTED: -1.22
--
COMPOUND: CCO/N=C(/N)C1CN(c2c(F)cc3c(=O)c(C(=O)O)cn(CCF)c3c2F)C/C1=N\OC (stereo unspecified)
VALUE REPORTED: -0.60
--
COMPOUND: CCn1cc(C(=O)O)c(=O)c2cc(F)c(N3C/C(=N\OC)C(/C(N)=N\OC)C3)c(F)c21 (stereo unspecified)
VALUE REPORTED: -0.30
--
COMPOUND: CO/N=C1\CN(c2c(F)cc3c(=O)c(C(=O)O)cn(C4CC4)c3c2OC(F)F)CC1/C(N)=N\O (stereo unspecified)
VALUE REPORTED: -0.60
--
COMPOUND: C[C@H]1COc2c(N3CCN(C)CC3)c(F)cc3c(=O)c(C(=O)O)cn1c23.C[C@H]1COc2c(N3CCN(C)CC3)c(F)cc3c(=O)c(C(=O)O)cn1c23.O
VALUE REPORTED: 0.30
--
COMPOUND: CCO/N=C(/N)C1CN(c2c(F)cc3c(=O)c(C(=O)O)cn(CC)c3c2F)C/C1=N\OC (stereo unspecified)
VALUE REPORTED: -0.60
--
COMPOUND: CO/N=C1\CN(c2c(F)cc3c(=O)c(C(=O)O)cn(C4CC4)c3c2F)CC1/C(N)=N\OC (stereo unspecified)
VALUE REPORTED: -0.60

Inquiry: Identify measured log10 of MIC corresponding to CCO/N=C1\CN(c2c(F)cc3c(=O)c(C(=O)O)cn4c3c2OC[C@@H]4C)CC1/C(N)=N\O (stereo partly specified)
Reply text: -0.60

Inquiry: Identify measured log10 of MIC corresponding to CCO/N=C(/N)C1CN(c2nc3c(cc2F)c(=O)c(C(=O)O)cn3C2CC2)C/C1=N\OC (stereo unspecified)
Reply text: -0.60

Inquiry: Identify measured log10 of MIC corresponding to CCO/N=C1\CN(c2nc3c(cc2F)c(=O)c(C(=O)O)cn3C2CC2)CC1/C(N)=N\OC (stereo unspecified)
Reply text: -0.60

Inquiry: Identify measured log10 of MIC corresponding to CCO/N=C1\CN(c2nc3c(cc2F)c(=O)c(C(=O)O)cn3-c2ccc(F)cc2F)CC1/C(N)=N\OC (stereo unspecified)
Reply text: -0.60

Inquiry: Identify measured log10 of MIC corresponding to CCn1cc(C(=O)O)c(=O)c2cc(F)c(N3C/C(=N\OC)C(/C(N)=N\O)C3)c(F)c21 (stereo unspecified)
Reply text: -0.60

Inquiry: Identify measured log10 of MIC corresponding to CCO/N=C1\CN(c2c(F)cc3c(=O)c(C(=O)O)cn4c3c2OC[C@@H]4C)CC1/C(N)=N\OCC (stereo partly specified)
Reply text: 0.90

Inquiry: Identify measured log10 of MIC corresponding to CO/N=C1\CN(c2nc3c(cc2F)c(=O)c(C(=O)O)cn3C2CC2)CC1CN (stereo unspecified)
Reply text: -0.60

Provenance of the data: ChEMBL document CHEMBL1287651
